- Tested on: AILNCaP15 cell line
- procedure-text: Cell proliferation suppression test (crystal violet staining)
- Format: cell-based
- particulars: 336 h, two weeks culture, crystal violet
observable: IC50

Quick check: IC50 of CN1CC[C@H](c2c(O)cc(O)c3c(=O)cc(-c4ccccc4Cl)oc23)[C@H](O)C1 ?
125 to 250 nM
